For each of the molecules below, state its IC50.
Tested on: HT1197 cells
Assay: Cell-based assay, anti-proliferative activity, MELK-negative control (Cell Counting Kit-8, 72 hours)
Set-up: species or system human
Details: Homo sapiens, HT1197, 72 h, read-out: IC50 (μM) (HTll97)
Structures can show the parent of a compound that is named as a salt.
Report as a plain number; the unit µM is understood.

// IC50 value for CC(=O)c1cnc2ccc(-c3cc(F)c(O)c(Cl)c3)nc2c1Nc1ccc(N2CCC[C@@H](N)C2)nc1 : 0.43

// IC50 value for CC(=O)c1cnc2ccc(-c3cc(F)c(O)c(Cl)c3)nc2c1N[C@H]1CC[C@H](NC(=O)C(C)N)CC1 (some centres unmarked) [Example 74, dihydrochloride] : 100

// IC50 value for CN(C)[C@H]1CC[C@H](Nc2c(C(=O)CO)cnc3ccc(-c4cc(Cl)c(O)c(Cl)c4)nc23)CC1 [Example 203, dihydrochloride] : 1.2

// IC50 value for CC(=O)c1cnc2ccc(-c3cc(Cl)c(O)c(Cl)c3)nc2c1Nc1ccc(CCN(C)C)cc1 [Example 29, dihydrochloride] : 0.68

// IC50 value for CN(C)C[C@H]1CC[C@H](Nc2c(C(=O)CO)cnc3ccc(-c4cc(F)c(O)c(Cl)c4)nc23)CC1 [Example 204, dihydrochloride] : 10

// IC50 value for CC(=O)c1cnc2ccc(-c3cc(F)c(O)c(F)c3)nc2c1N[C@H]1CC[C@H](CN(C)C)CC1 [Example 50, dihydrochloride] : 0.08

// IC50 value for CC(=O)c1cnc2ccc(-c3cc(F)c(O)c(Cl)c3)nc2c1NC1CCN(C)CC1 : 0.53

// IC50 value for CC(=O)c1cnc2ccc(-c3cc(Cl)c(O)c(Cl)c3)nc2c1N[C@H]1CC[C@H](CN2CCCC2)CC1 [Example 61, dihydrochloride] : 0.15

// IC50 value for CN(C)[C@H]1CC[C@H](Nc2c(C(=O)C3CC3)cnc3ccc(-c4cc(Cl)c(O)c(Cl)c4)nc23)CC1 [Example 80, dihydrochloride] : 0.084

// IC50 value for CC(=O)c1cnc2ccc(-c3cc(F)c(O)c(Cl)c3)nc2c1Nc1ccc(N2CCC[C@H](N)C2)nc1 [Example 72, trihydrochloride] : 1.2

// IC50 value for CC(=O)c1cnc2ccc(-c3cc(F)c(O)c(Cl)c3)nc2c1N1CCC(CCN2CCCC2)CC1 [Example 37, dihydrochloride] : 7.2

// IC50 value for COc1cc(-c2ccc3ncc(C(C)=O)c(Nc4ccc(OCCN(C)C)nc4)c3n2)cc(Cl)c1O [Example 23, dihydrochloride] : 8.9

// IC50 value for COc1cc(-c2ccc3ncc(C(C)=O)c(N[C@H]4CC[C@H](CN(C)C)CC4)c3n2)cc(Cl)c1O [Example 8, dihydrochloride] : 0.24

// IC50 value for COc1cc(-c2ccc3ncc(S(C)(=O)=O)c(Nc4ccc(CN(C)C)cc4)c3n2)cc(Cl)c1O [Example 18, dihydrochloride] : 3.8

// IC50 value for CC(=O)c1cnc2ccc(-c3cc(F)c(O)c(Cl)c3)nc2c1N[C@H]1CC[C@H](N)CC1 [Example 67, dihydrochloride] : 2.8

// IC50 value for CC(=O)c1cnc2ccc(-c3cc(Cl)c(O)c(Cl)c3)nc2c1Nc1cccc(CCN2CCCC2)c1 [Example 19, dihydrochloride] : 7

// IC50 value for COc1ccc(-c2ccc3ncc(C(C)=O)c(N[C@H]4CC[C@H](CN(C)C)CC4)c3n2)cc1 [Example 84, dihydrochloride] : 6

// IC50 value for CN(C)CCOc1ccc(Nc2c(S(C)(=O)=O)cnc3ccc(-c4cc(Cl)c(O)c(Cl)c4)nc23)cn1 [Example 24, hydrochloride] : 15

// IC50 value for CC(=O)c1cnc2ccc(Cl)nc2c1N[C@H]1CC[C@H](CN(C)C)CC1 : 10

// IC50 value for CN(C)C[C@H]1CC[C@H](Nc2c(C(=O)CO)cnc3ccc(-c4cc(Cl)c(O)c(Cl)c4)nc23)CC1 [Example 44, dihydrochloride] : 0.2

// IC50 value for CC(=O)c1cnc2ccc(-c3cc(Cl)c(O)c(Cl)c3)nc2c1N[C@H]1CC[C@H](CCN(C)C)CC1 [Example 9, dihydrochloride] : 0.27

// IC50 value for CC(=O)c1cnc2ccc(-c3cc(Cl)c(O)c(Cl)c3)nc2c1Nc1ccc(NCCN(C)C)nc1 [Example 38, trihydrochloride] : 9.5

// IC50 value for N[C@@H]1CCCN(c2ccc(Nc3c(C(=O)C4CC4)cnc4ccc(-c5cc(F)c(O)c(Cl)c5)nc34)cn2)C1 : 0.047

// IC50 value for N[C@H]1CCCN(c2ccc(Nc3c(C(=O)C4CC4)cnc4ccc(-c5cc(Cl)c(O)c(Cl)c5)nc34)cn2)C1 [Example 40, trihydrochloride] : 4.2

// IC50 value for COc1c(Cl)cc(-c2ccc3ncc(C(C)=O)c(N[C@H]4CC[C@H](CN(C)C)CC4)c3n2)cc1Cl [Example 85, dihydrochloride] : 6.5

// IC50 value for CC(=O)c1cnc2ccc(N3CCCC3)nc2c1N[C@H]1CC[C@H](CN2CCCC2)CC1 : 9.8
